For each entry below, report its ED50 at 10 min value.
assay text: Mydriasis (effect on pupil size)
recorded conditions: rat, in vivo, iv, pupil size observed for ten minutes
Only the number, expressed in mg/kg, is required.

Reported ED50 at 10 min, compound CN1CCN(CC(=O)C2c3ccccc3NC(=O)c3ccccc32)CC1 (stereo not drawn) : ____
0.161

Reported ED50 at 10 min, compound CN1CCC(CC(=O)C2c3ccccc3NC(=O)c3ccccc32)CC1 (stereo not drawn) : ____
0.179

Reported ED50 at 10 min, compound CN1CCC(NC(=O)C2c3ccccc3NC(=O)c3ccccc32)CC1 (stereo not drawn) : ____
0.075

====

target of assay: muscarinic receptors (smooth muscle from fundus of stomach) (Rattus norvegicus, UniProt P10980)
Sequence (P10980 whole entry): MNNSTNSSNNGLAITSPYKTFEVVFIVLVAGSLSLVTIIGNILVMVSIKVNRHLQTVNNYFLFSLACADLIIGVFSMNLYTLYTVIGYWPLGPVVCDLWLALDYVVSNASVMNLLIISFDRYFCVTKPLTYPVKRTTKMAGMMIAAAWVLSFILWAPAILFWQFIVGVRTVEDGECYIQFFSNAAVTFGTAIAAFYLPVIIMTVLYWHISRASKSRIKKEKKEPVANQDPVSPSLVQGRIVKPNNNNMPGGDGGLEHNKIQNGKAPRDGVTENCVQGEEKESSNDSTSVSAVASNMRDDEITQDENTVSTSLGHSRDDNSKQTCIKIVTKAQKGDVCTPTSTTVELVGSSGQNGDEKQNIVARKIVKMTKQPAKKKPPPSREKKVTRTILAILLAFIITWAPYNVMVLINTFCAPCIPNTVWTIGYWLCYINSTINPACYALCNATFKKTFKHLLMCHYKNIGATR
For each entry below, report its IC50 value.
Only the number, expressed in nM, is required.

Reported IC50, compound CN1CCN(CC(=O)C2c3ccccc3NC(=O)c3ccccc32)CC1 (stereo not drawn) [C] : ____
400

Reported IC50, compound CN1CCC(CC(=O)C2c3ccccc3NC(=O)c3ccccc32)CC1 (stereo not drawn) [B] : ____
150

Reported IC50, compound CN1CCC(NC(=O)C2c3ccccc3NC(=O)c3ccccc32)CC1 (stereo not drawn) [A] : ____
700

====

target of assay: muscarinic receptors (cerebral cortex)
assay text: Muscarinic receptor binding (inhibition of specific 3H-N-methylscopolamine binding), cerebral cortex
recorded conditions: rat cerebral cortex homogenate 1:3000, 3H-NMS, 30° C., 45 minutes; read-out: Receptor Binding Tests IC50, Cortex
Protocol: Determination of the IC50 value The organ donors were male Sprague-Dawley rats weighing from 180 to 220 gm. […] The homogenized organ preparations were incubated in an Eppendorf centrifugal tube at 30° C. with a specific concentration of the radioligand and a concentration series of the non-radioactive test substances. […] After the incubation had been stopped by centrifuging at 14,000 g, the radioactivity in the pellet was determined. […]
readout type: IC50 (nM)
Only the number, expressed in nM, is required.

Reported IC50, compound CN1CCC(CC(=O)C2c3ccccc3NC(=O)c3ccccc32)CC1 (centres unmarked) : ____
25

Reported IC50, compound CN1CCC(NC(=O)C2c3ccccc3NC(=O)c3ccccc32)CC1 (centres unmarked) : ____
40
